Task for the reader: assign each of the following molecules its reported kinase still bound, per cent of control.
- target-system: ERBB4 (human) (UniProt Q15303)
- Sequence (Q15303 whole entry, looked up): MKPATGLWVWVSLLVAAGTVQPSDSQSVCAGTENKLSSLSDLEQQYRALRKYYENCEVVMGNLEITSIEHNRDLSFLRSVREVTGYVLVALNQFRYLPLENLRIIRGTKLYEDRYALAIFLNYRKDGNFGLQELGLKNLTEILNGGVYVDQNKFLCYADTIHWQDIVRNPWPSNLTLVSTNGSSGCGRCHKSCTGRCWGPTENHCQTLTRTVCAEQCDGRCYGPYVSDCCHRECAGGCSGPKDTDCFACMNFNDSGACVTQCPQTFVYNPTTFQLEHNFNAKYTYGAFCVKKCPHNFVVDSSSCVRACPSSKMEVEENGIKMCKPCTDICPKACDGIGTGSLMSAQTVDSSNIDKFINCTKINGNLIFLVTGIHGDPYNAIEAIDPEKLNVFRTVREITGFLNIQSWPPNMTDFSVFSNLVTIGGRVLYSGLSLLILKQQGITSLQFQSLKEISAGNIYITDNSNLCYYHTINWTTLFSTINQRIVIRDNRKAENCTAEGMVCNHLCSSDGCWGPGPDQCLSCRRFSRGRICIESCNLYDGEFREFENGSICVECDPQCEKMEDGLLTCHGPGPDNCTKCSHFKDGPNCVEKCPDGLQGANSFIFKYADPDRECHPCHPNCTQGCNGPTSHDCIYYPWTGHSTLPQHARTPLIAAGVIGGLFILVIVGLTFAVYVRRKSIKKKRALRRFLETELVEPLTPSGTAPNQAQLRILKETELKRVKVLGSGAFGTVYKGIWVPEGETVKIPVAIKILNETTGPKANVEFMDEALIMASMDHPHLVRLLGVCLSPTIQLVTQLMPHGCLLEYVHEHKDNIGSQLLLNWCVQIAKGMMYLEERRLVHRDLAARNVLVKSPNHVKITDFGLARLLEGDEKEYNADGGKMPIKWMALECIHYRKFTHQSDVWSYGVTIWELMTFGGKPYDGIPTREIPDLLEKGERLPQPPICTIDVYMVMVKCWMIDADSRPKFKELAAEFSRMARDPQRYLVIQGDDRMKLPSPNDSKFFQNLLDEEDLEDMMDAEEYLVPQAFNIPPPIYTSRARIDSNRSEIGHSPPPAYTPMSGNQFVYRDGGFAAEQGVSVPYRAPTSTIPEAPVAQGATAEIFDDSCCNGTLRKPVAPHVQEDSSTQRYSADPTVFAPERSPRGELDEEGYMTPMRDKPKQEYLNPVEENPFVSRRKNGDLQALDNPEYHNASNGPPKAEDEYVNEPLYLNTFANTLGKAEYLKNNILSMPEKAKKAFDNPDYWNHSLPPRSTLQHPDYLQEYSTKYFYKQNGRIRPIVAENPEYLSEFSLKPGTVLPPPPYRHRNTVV
- protocol-description: KINOMEscan competition binding
- settings: compound 10.0 µM
One number for each entry, in %.

Solved cases below.
COc1cc(N2CCN(C)CC2)ccc1Nc1ncc2c(n1)N(C)c1ccccc1C(=O)N2C    100
CN(C)C/C=C/C(=O)Nc1ccc(C(=O)Nc2cccc(Nc3nccc(-c4cccnc4)n3)c2)cc1    100
COc1cc2ncn(-c3cc(OCc4ccccc4C(F)(F)F)c(C(N)=O)s3)c2cc1OC    80
CS(=O)(=O)N1CCN(Cc2cc3nc(-c4cccc5[nH]ncc45)nc(N4CCOCC4)c3s2)CC1    100

Next, consider the following molecule.
// query kinase still bound, per cent of control value for entry COc1ccc(N(C(=O)Oc2c(C)cccc2C)c2ccnc(Nc3ccc(N4CCN(C)CC4)cc3)n2)c(OC)c1
0.75

Cited source: the kinase profiling compilation of Christmann-Franck et al. (2016)
